- Tested on: Oryctolagus cuniculus
- method: Reduction in hypertonic saline solution-induced elevated intraocular pressure in New Zealand White rabbit at 1 mM dosed topically before hypertonic saline solution injection measured after 120 mins
- Assay type: functional, organism-based
Active and inactive are the calls of the source. No cut-off for these calls is given here.
readout-name: Activity

{"structure-smiles": "COc1ccc2[nH]cc(CCNC(C)=O)c2c1", "value-observed": "inactive"}
{"structure-smiles": "CC(=O)NCCN(C)c1cccc(OCCCCCCNC(=O)Oc2cccc(-c3cccc(C(N)=O)c3)c2)c1", "value-observed": "Active"}
{"structure-smiles": "CC(=O)NCCc1c[nH]c2ccc(OCCCCCCNC(=O)Oc3cccc(-c4ccccc4)c3)cc12", "value-observed": "inactive"}
{"structure-smiles": "CC(=O)NCCc1c(Br)[nH]c2ccc(OCCCCCCNC(=O)Oc3cccc(-c4ccccc4)c3)cc12", "value-observed": "Active"}

QUERY: Give me measured Activity, please, for this compound: CC(=O)NCCN(C)c1cccc(OCCCCCCNC(=O)Oc2cccc(-c3cccc(O)c3)c2)c1
RESULT: Active

QUERY: Give me measured Activity, please, for this compound: NC(=O)c1cccc(-c2cccc(OC(=O)NC3CCCCC3)c2)c1
RESULT: inactive

QUERY: Give me measured Activity, please, for this compound: CC(=O)NCCN(C)c1cccc(OCCCCCCCCNC(=O)Oc2cccc(-c3ccccc3)c2)c1
RESULT: Active

QUERY: Give me measured Activity, please, for this compound: CC(=O)NCCc1c[nH]c2ccc(OCCCCCCCCNC(=O)Oc3cccc(-c4ccccc4)c3)cc12
RESULT: inactive
